Listing of entries alongside the reported Enzyme Activity Endpoint Assay (purified): IgG.
# measurement target: pooled human IgG (human IgG1,2,3 and 4)
Report the figure in ng/µL without appending any unit label.

Worked examples, 3 proteins total:
Q. What Enzyme Activity Endpoint Assay (purified): IgG value was documented for this protein, PRT-311 (protein) MQITSVWTKGVTPLTPEQFRENNEDVIHAPYLAHQGWYDITKAFDGKDNLLCGAATAGNMLHWWFDQNKTEIEAYLSKHPEKQKIIFNNQEWFDLKAAIDTKDSQTNSQLFNYFRDKAFPNLSARQLGVMPDLVLDMFINGYYLNVPKTQSTDVNRPYQDKDKRGGIFDAVFTRGDQTTLLTARHDLKNKGLNDISTIIKQELTEGRALALSHTYANVSISHVINLWGADFNAEGNLEAIYVTDSDANASIGMKKYAVGINAHGHVAISAKKIEGENIGAQVLGLFTLSSGKDIWQKLS ?
A. 109

Q. Similarly, PRT-336 (protein) MTITSVWTKGVTPPTPEDFRENNEDVLHAPYVANQGWYDITKTFDGKDNLLCGAATAGNMLHWWFDQNKEEIERYLKKHPEKQKIIFNNQELFDVKAAIDTKDSQTNSKLFDYFRDKAFPGLSARQLGVFPDLVLDMFINGYYLNLGKTQSTDVNRPYQDKDKRGGIFDAVFTRGVQTTLLTARHDLKNKGLNEISDLIKQELTEGKALALSHTYANVRINHVINLWGADFDAEGELIAIYVTDSDANPSIGMKKYFVGRNANGKVAISAKKIEGDNIGAQVLGLFTLSTGQDIWQKLS ?
A. 370

Q. Similarly, PRT-462 (protein) MVTSVWTKGVTPPTDFRKIVDGNIAYYHAPYKAGQGWYDITKAFDGGDDLLCGAATAGNMLHWWFDQNKDQIERYLKEHPEKQKINFNGEQMFDVKEAIDTKDSQTNSELFNYFKEKAFPYLSTKHLGVFPDHVLDMFINGYRLSLTNHGPTPVKEGSKDPRGGIFDAVFTRGDQSKLLTSRHDLKNKTLKEISDLIKQELTEGKALGLSHTYANVRINHVINLWGADFDSEGNLKAIYVTDSDSNASIGMKKYFVGVNSAGKVAISAKEIKEDNIGAQVLGLFTLSTGQDIWNQTNLEHHHHHH ?
A. 0

Could you now look at the following protein, please?
Q. What Enzyme Activity Endpoint Assay (purified): IgG value was documented for this protein, PRT-363 (protein) MSQTEDSESLQRLRDIEDFQAEKEKQNVVYTKWLDGVDVKDHDFRKIVDGNSAYYATPLLNGRGWYDINKDFNRDSDKCAAAVAANMFHYWLDRNRDNVDRFLRQNPEKHGIIELPDGQLKLSDFLNTYESDDGYRDKSKLFDFISENFNGPVWTDKLLDNYINGYAYNSKYGRTIEDPTKNTSKINFFKEVFNEKILTNNHSIRNQNEFSVLLIEALYTGKAIGLSYGPAGLRHGLGHIISVWGADLDADGNVVAIYVTDSDDKKLTIGDERVGLKRYKISTDDEGRLRLTAYEETHNTGGQVRGLWTLDTGKQAWADYFDKTEQTGTDQAEQ ?
A. 0
